Catalogue of kon values
# tgt: T1, recombinant ILT2 (human) (human, UniProt Q8NHL6 24-461)
# T1 construct: also called recombinant ILT2 peptide; ILT2 protein
# assay.details: SPR (Biacore T200), HEK EBNA supernatants on recombinant ILT2 peptide
The response must be a number in M⁻¹ s⁻¹ with no trailing unit.

binder: 15G8-54 (humanized 15G8, VH5/Vk4) (antibody, IgG4, V domains shown, Humanized IgG4 (S228P, L235E), kappa) VH: QVQLQGSGPGLVKPSETLSLTCTVTGYSITSGYYWNWIRQPPGKGLEWIGYISYDGSNNYNPSLKNRVTISRDTSKNQFSLKLSSVTAADTATYYCAHGYSYYYAMDAWGQGTTVTVSS VL: DIQMTQSPSSLSASVGDRVTITCRTSQDISNYLNWYQQKPGKAPKLLISYTSRLHSGVPSRFSGSGSGTDYTLTISSLQPEDFATYFCQQGNTLPTFGQGTKLEIK
unit.spec: M⁻¹ s⁻¹
kon: 1.14e+06

Please turn your attention to the following entry.
Inquiry: Give the measured kon for humanized 15G8 VH5/Vk2 (antibody, IgG4, V domains shown, Humanized IgG4 (S228P, L235E), kappa; tested as supernatant of transiently transfected HEK EBNA cells) VH: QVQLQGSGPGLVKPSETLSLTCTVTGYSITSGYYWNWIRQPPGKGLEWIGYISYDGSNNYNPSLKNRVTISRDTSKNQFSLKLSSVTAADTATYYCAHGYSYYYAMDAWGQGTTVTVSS VL: DIQMTQSPSSLSASVGDRVTITCRTSQDISNYLNWYQQKPGKAVKLLISYTSRLHSGVPSRFSGSGSGTDYTLTISSLQPEDFATYFCQQGNTLPTFGQGTKLEIK
Reply text: 1.26e+06
